Attribution: patent US20200397796A1

- method_summary: Single dose PK, monkey
- Assay type: in vivo
- protocol_conditions: in vivo; Monkey oral 10 mg/kg single dose
- Protocol: The PK of SRA737 have been determined in the mouse, rat, dog and monkey following oral and IV administration (Table 3). […] An acceptable terminal elimination t1/2 was also observed in each species. […] The plasma protein binding of SRA737 at 1 and 10 μM was examined in mouse, minipig, monkey and human plasma using ultracentrifugation and in dog plasma (10 μM) using rapid equilibrium dialysis.
assay_endpoint: Tmax

Provide measured Tmax value, entry: N#Cc1cnc(Nc2cc(NCC3CNCCO3)c(C(F)(F)F)cn2)cn1 (stereo not shown) 2 to 4 h

---

- method_summary: SRA737 plasma and tumor concentrations in HT29 xenograft model
- Type: in vivo, mouse
- protocol_conditions: mouse, plasma, oral, 3.125 mg/kg
assay_endpoint: concentration at 6 h (nM)
Record the value in nM, omitting the unit from your answer.

Provide measured concentration at 6 h value, entry: N#Cc1cnc(Nc2cc(NCC3CNCCO3)c(C(F)(F)F)cn2)cn1 (stereo not shown) [SRA737] 194

---

- method_summary: Phase 1 clinical trial, SRA737 in combination with gemcitabine dose escalation
- Assay type: in vivo, human
- protocol_conditions: human, plasma, oral, 150 mg; Day −7; mean, n = 4
assay_endpoint: Tmax (h)
Record the value in h, omitting the unit from your answer.

Provide measured Tmax value, entry: N#Cc1cnc(Nc2cc(NCC3CNCCO3)c(C(F)(F)F)cn2)cn1 (stereo not shown) 1.8

---

- method_summary: GLP 28-day repeat oral dose toxicity and toxicokinetics, mouse
- protocol_conditions: male, mouse, in vivo, po, 75 mg/kg/day
assay_endpoint: half-life (h)
Record the value in h, omitting the unit from your answer.

Provide measured half-life value, entry: N#Cc1cnc(Nc2cc(NCC3CNCCO3)c(C(F)(F)F)cn2)cn1 (stereo not shown) 8.36

---

- method_summary: Single dose PK, dog
- Format: in vivo
- protocol_conditions: in vivo; Dog oral 5 mg/kg single dose
assay_endpoint: Cmax (ng/mL)
Record the value in ng/mL, omitting the unit from your answer.

Provide measured Cmax value, entry: N#Cc1cnc(Nc2cc(NCC3CNCCO3)c(C(F)(F)F)cn2)cn1 (stereo not shown) 130

---

- method_summary: Phase 1 clinical trial, SRA737 monotherapy dose escalation
- Assay type: in vivo, human
- protocol_conditions: human, in vivo, 160 mg, Cmax
assay_endpoint: Cmax (ng/mL)
Record the value in ng/mL, omitting the unit from your answer.

Provide measured Cmax value, entry: N#Cc1cnc(Nc2cc(NCC3CNCCO3)c(C(F)(F)F)cn2)cn1 (stereo not shown) 178

---

- method_summary: Single dose PK, dog
- Type: in vivo
- protocol_conditions: in vivo; Dog oral 5 mg/kg single dose
- Description: The PK of SRA737 have been determined in the mouse, rat, dog and monkey following oral and IV administration (Table 3). […] An acceptable terminal elimination t1/2 was also observed in each species. […] The plasma protein binding of SRA737 at 1 and 10 μM was examined in mouse, minipig, monkey and human plasma using ultracentrifugation and in dog plasma (10 μM) using rapid equilibrium dialysis.
assay_endpoint: AUC(0-t) (ng·h/mL)
Record the value in ng·h/mL, omitting the unit from your answer.

Provide measured AUC(0-t) value, entry: N#Cc1cnc(Nc2cc(NCC3CNCCO3)c(C(F)(F)F)cn2)cn1 (stereo not shown) [SRA737] 850

---

- method_summary: Phase 1 clinical trial, SRA737 in combination with gemcitabine dose escalation
- Assay type: in vivo, human
- protocol_conditions: human, plasma, oral, 80 mg; Day −7; mean, n = 3; read-out: AUC0-12
assay_endpoint: AUC(0-t) (ng·h/mL)
Record the value in ng·h/mL, omitting the unit from your answer.

Provide measured AUC(0-t) value, entry: N#Cc1cnc(Nc2cc(NCC3CNCCO3)c(C(F)(F)F)cn2)cn1 (stereo not shown) 641
